molecular target: CDK4 (Homo sapiens); construct: endogenous in cells; experiment: CDK4 degradation (DC50, Dmax); format: cell-based
Sequence (P11802 whole entry): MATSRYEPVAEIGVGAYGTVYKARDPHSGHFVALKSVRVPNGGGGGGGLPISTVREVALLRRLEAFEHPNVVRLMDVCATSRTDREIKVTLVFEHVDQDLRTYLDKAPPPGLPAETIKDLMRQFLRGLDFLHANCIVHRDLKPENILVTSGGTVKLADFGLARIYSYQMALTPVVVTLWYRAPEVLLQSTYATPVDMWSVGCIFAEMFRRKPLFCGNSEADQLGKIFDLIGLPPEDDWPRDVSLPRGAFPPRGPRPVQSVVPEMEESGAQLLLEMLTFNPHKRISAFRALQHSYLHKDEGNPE
measurementType: Dmax

I have this compound here, Cc1nc2c(F)cc(-c3nc(Nc4ccc(CC5CCN(C6CCN(c7ccc(C(=O)NC8CCC(=O)NC8=O)cc7)CC6)CC5)cn4)ncc3F)cc2n1C(C)C (stereo not shown) [Compound 171] , and I need its recorded Dmax.
> 60%

Requested field: Dmax. Item: CC(=O)c1c(C)c2cnc(Nc3ccc(C4CCN(C(=O)C5CN(c6ccc(C(=O)NC7CCC(=O)NC7=O)cc6)C5)CC4)cn3)nc2n(C2CCCC2)c1=O (stereo not shown) [Compound 131]
> 60%

Endpoint output: Dmax of Cc1nc2c(F)cc(-c3nc(Nc4ccc(CN5CCN(C6CN(c7cccc8c7CN(C7CCC(=O)NC7=O)C8=O)C6)CC5)cn4)ncc3F)cc2n1C(C)C (stereo not shown) [Compound 99] . Value?
> 60%

Fill blank: measured Dmax of the compound Cc1nc2c(F)cc(-c3nc(Nc4ccc(CN5CCN(CCNc6ccc7c(c6)C(=O)N(C6CCC(=O)NC6=O)C7)CC5)cn4)ncc3F)cc2n1C(C)C (stereo not shown) [Compound 91] is ____.
> 80%

Returns the measured Dmax for the input compound. Input: CC(=O)c1c(C)c2cnc(Nc3ccc(N4CCN(C(=O)N5CCN(CCN6CCN(c7ccc8c(c7)C(=O)N(C7CCC(=O)NC7=O)C8=O)CC6)CC5)CC4)cn3)nc2n(C2CCCC2)c1=O (stereo not shown) [Compound 21]
> 60%

Look up Dmax: CC(=O)c1c(C)c2cnc(Nc3ccc(N4CCN(C(=O)N5CCC(CCN6CCN(c7ccc8c(c7)CN(C7CCC(=O)NC7=O)C8=O)CC6)CC5)CC4)cn3)nc2n(C2CCCC2)c1=O (stereo not shown) [Compound 20]
> 60%

For the compound shown here, CC(=O)c1c(C)c2cnc(Nc3ccc(N4CCN(C5CCN(c6ccc7c(c6)C(=O)N(C6CCC(=O)NC6=O)C7=O)CC5)CC4)cn3)nc2n(C2CCCC2)c1=O (stereo not shown) [Compound 63] , give the reported Dmax.
> 80%

Item under review: Cc1nc2c(F)cc(-c3nc(Nc4ccc(CC5CCN(C6CN(c7ccc8c(c7)C(=O)N(C7CCC(=O)NC7=O)C8=O)C6)CC5)cn4)ncc3F)cc2n1C(C)C (stereo not shown) [Compound 148] . Reported Dmax?
> 60%

Name the recorded Dmax for CC(=O)c1c(C)c2cnc(Nc3ccc(N4CCN(CC5CN(c6ccc7c(c6)C(=O)N(C6CCC(=O)NC6=O)C7=O)C5)CC4)cn3)nc2n(C2CCCC2)c1=O (stereo not shown) [Compound 80] .
> 80%

State the recorded Dmax for this entry: Cc1nc2c(F)cc(-c3nc(Nc4ccc(CN5CCN(C6CN(c7ccc(C(=O)NC8CCC(=O)NC8=O)cc7)C6)CC5)cn4)ncc3F)cc2n1C(C)C (stereo not shown) [Compound 96]
> 80%

Item CC(=O)c1c(C)c2cnc(Nc3ccc(C4CCN(CC5CN(c6ccc7c(c6)C(=O)N(C6CCC(=O)NC6=O)C7=O)C5)CC4)cn3)nc2n(C2CCCC2)c1=O (stereo not shown) [Compound 125] has what recorded Dmax?
> 80%

Give its Dmax value. Item: CC(=O)c1c(C)c2cnc(Nc3ccc(N4CCN(CCN(C)c5ccc6c(c5)CN(C5CCC(=O)NC5=O)C6=O)CC4)cn3)nc2n(C2CCCC2)c1=O (stereo not shown) [Compound 56]
> 60%

Name the recorded Dmax for Cc1nc2c(F)cc(-c3nc(Nc4ccc(CC5CCN(CC6CCN(c7ccc8c(c7)C(=O)N(C7CCC(=O)NC7=O)C8=O)CC6)CC5)cn4)ncc3F)cc2n1C(C)C (stereo not shown) [Compound 157] .
> 80%

I'd like to know its Dmax. The compound in question is Cc1nc2c(F)cc(-c3nc(Nc4ccc(CC5CCN(CC6CCN(c7ccc8c(c7)CN(C7CCC(=O)NC7=O)C8=O)CC6)CC5)cn4)ncc3F)cc2n1C(C)C (stereo not shown) [Compound 158]
> 80%

Would you kindly share the measured Dmax for CC(=O)c1c(C)c2cnc(Nc3ccc(N4CCN(C(=O)C5CCN(c6ccc7c(c6)C(=O)N(C6CCC(=O)NC6=O)C7=O)CC5)CC4)cn3)nc2n(C2CCCC2)c1=O (stereo not shown) [Compound 114] ?
> 80%

Can you look up the measured Dmax of Cc1nc2c(F)cc(-c3nc(Nc4ccc(CN5CCN(C6CCN(c7ccc(NC8CCC(=O)NC8=O)cc7)CC6)CC5)cn4)ncc3F)cc2n1C(C)C (stereo not shown) [Compound 168] for me?
> 80%

// returns reported Dmax for input CC(=O)c1c(C)c2cnc(Nc3ccc(N4CCN(CCNc5ccc6c(c5)CN(C5CCC(=O)NC5=O)C6=O)CC4)cn3)nc2n(C2CCCC2)c1=O (stereo not shown) [Compound 48]
> 80%

Look up Dmax: Cc1nc2c(F)cc(-c3nc(Nc4ccc(CN5CCN(C(=O)C6CCN(c7ccc(C(=O)NC8CCC(=O)NC8=O)cc7)CC6)CC5)cn4)ncc3F)cc2n1C(C)C (stereo not shown) [Compound 155]
> 50%

Dmax lookup needed for CC(=O)c1c(C)c2cnc(Nc3ccc(N4CCN(CCCNc5cc6c(cc5F)C(=O)N(C5CCC(=O)NC5=O)C6=O)CC4)cn3)nc2n(C2CCCC2)c1=O (stereo not shown) [Compound 51] , thanks.
> 80%

Fill in the blank: the reported Dmax of CC(=O)c1c(C)c2cnc(Nc3ccc(N4CCN(CC5CCN(C(=O)Nc6ccc7c(c6)CN(C6CCC(=O)NC6=O)C7=O)CC5)CC4)cn3)nc2n(C2CCCC2)c1=O (stereo not shown) [Compound 42] is ____.
> 80%

Which Dmax value is on record for CC(=O)c1c(C)c2cnc(Nc3ccc(C4CCN(C(=O)C5CN(c6ccc(NC7CCC(=O)NC7=O)cc6)C5)CC4)cn3)nc2n(C2CCCC2)c1=O (stereo not shown) [Compound 132] ?
> 80%

Which measured Dmax value corresponds to Cc1nc2c(F)cc(-c3nc(Nc4ccc(CC5CCN(CC6CCN(c7ccc(C(=O)NC8CCC(=O)NC8=O)cc7)CC6)CC5)cn4)ncc3F)cc2n1C(C)C (stereo not shown) [Compound 159] ?
> 80%
